- assay-remarks: saturation solubility in various solvent systems
- Format: physicochemical
- cond: water, thermodynamic from solid, solvent: Water, read-out: Solubility
measurement-name: Solubility (mg/mL)

compound | measurement-name | experimental-result
Nc1nc(NC2CC2)c2ncn([C@H]3C=C[C@@H](CO)C3)c2n1 [Abacavir Sulphate, reference compound] | Solubility | 89.2

* * *

- assay-remarks: saturation solubility in various solvent systems
- Format: physicochemical
- cond: 0.1 N HCl, simulated gastric fluid, thermodynamic from solid, solvent: O.1N HC1, read-out: Solubility
measurement-name: Solubility

molecule | experimental-result
Nc1nc(NC2CC2)c2ncn([C@H]3C=C[C@@H](CO)C3)c2n1 [Abacavir Sulphate, reference compound] | 93.1 mg/mL

* * *

- assay-remarks: saturation solubility in various solvent systems
- Format: physicochemical
- cond: 0.1n hcl, simulated gastric fluid, thermodynamic from solid, solvent: O.1N HC1, read-out: Solubility
- Procedure: Solubility is the property of a solid, liquid, or gaseous chemical substance called solute to dissolve in a liquid solvent to form a homogeneous solution of the solute in the solvent. […] The saturation solubility of the compounds according to the present invention is measured in various solvent systems including simulated gastric fluid, pH 4.5 buffer, pH 6.8 buffer solution and pH 7.2 buffer solution. […]

compound | Solubility / mg/mL
Nc1nc(NC2CC2)c2ncn([C@H]3C=C[C@@H](CO)C3)c2n1 [Abacavir Malonate] | 368

* * *

- assay-remarks: saturation solubility in various solvent systems
- Assay type: physicochemical
- cond: 0.01n hcl, solvent: O.O1N HC1, read-out: Solubility

molecule | Solubility
Nc1nc(NC2CC2)c2ncn([C@H]3C=C[C@@H](CO)C3)c2n1 [Abacavir Malonate] | 733 mg/mL
